target: UniProt O89049; experiment: Inhibition of NADPH-reduced recombinant rat TrxR1 expressed in Escherichia coli harboring gor mutant assessed as suppression of DTNB reduction pretreated for 1 hr followed by DTNB addition measured every 5 mins for 1 hr
ASSAY_READOUT: pIC50
Remember the convention: pIC50 equals -log10 of concentration in molar.

Reported pIC50 ( CCCC[C@@H](C)/C=C(C)/C=C(\C)C(=O)NC1=C[C@@](O)(/C=C/C=C/C=C/C(=O)NC2=C(O)CCC2=O)[C@@H]2O[C@@H]2C1=O ) = 6.57

====

target: Thioredoxin reductase 1, cytoplasmic (Rattus norvegicus); test: Inhibition of NADPH-reduced recombinant rat TrxR1 expressed in Escherichia coli harboring gor mutant assessed as suppression of insulin reduction using Trx as substrate pretreated for 30 mins followed by Trx addition for 30 mins and subsequent eosin-labelled bovine insulin addition measured every 5 mins for 1 hr by fluorescence assay
Sequence (O89049 whole entry, looked up, stated change not applied): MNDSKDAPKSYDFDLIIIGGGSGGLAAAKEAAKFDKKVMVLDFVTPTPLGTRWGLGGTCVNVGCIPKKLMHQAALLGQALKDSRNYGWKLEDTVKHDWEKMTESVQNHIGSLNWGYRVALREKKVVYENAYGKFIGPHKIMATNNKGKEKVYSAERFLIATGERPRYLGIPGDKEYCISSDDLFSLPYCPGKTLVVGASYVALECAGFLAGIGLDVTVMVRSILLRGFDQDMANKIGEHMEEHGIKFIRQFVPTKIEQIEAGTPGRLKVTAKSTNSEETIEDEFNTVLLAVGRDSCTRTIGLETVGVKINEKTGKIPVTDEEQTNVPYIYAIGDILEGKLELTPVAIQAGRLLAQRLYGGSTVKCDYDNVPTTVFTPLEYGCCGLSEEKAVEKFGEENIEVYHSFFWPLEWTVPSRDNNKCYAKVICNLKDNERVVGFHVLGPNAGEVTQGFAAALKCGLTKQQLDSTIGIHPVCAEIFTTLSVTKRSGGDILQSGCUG
ASSAY_READOUT: pIC50
Remember the convention: pIC50 equals -log10 of concentration in molar.

Reported pIC50 ( CCCC[C@@H](C)/C=C(C)/C=C(\C)C(=O)NC1=C[C@@](O)(/C=C/C=C/C=C/C(=O)NC2=C(O)CCC2=O)[C@@H]2O[C@@H]2C1=O [MANUMYCIN A] ) = 6.24
